Please go through the items and note down their Volatility (μg/l air).
- PROCEDURE_SUMMARY: Volatility of perfuming compounds in air
- Assay type: physicochemical
- SETTINGS: Table 10, perfuming compounds having a woody note

Some solved entries appear below for comparison.
MOLECULE	Volatility (μg/l air)
COc1ccc(OC)c(C(C)(C)C)c1	82.95 μg/l air
CC1=CCC(C(C)(C)O)CC1 (racemic) [(+−)-ALPHA-TERPINEOL]	172.78 μg/l air

# input for lookup
Q) Which measured Volatility (μg/l air) value corresponds to CCCCC(CC)C(=O)OC (racemic) [(+−)-methyl 2-ethylhexanoate] ?
A) 6677.64 μg/l air
